Kindly state pIC50 for each of the entries shown.
Target: Glucocorticoid receptor (Homo sapiens, UniProt P04150)
Sequence (P04150 whole entry): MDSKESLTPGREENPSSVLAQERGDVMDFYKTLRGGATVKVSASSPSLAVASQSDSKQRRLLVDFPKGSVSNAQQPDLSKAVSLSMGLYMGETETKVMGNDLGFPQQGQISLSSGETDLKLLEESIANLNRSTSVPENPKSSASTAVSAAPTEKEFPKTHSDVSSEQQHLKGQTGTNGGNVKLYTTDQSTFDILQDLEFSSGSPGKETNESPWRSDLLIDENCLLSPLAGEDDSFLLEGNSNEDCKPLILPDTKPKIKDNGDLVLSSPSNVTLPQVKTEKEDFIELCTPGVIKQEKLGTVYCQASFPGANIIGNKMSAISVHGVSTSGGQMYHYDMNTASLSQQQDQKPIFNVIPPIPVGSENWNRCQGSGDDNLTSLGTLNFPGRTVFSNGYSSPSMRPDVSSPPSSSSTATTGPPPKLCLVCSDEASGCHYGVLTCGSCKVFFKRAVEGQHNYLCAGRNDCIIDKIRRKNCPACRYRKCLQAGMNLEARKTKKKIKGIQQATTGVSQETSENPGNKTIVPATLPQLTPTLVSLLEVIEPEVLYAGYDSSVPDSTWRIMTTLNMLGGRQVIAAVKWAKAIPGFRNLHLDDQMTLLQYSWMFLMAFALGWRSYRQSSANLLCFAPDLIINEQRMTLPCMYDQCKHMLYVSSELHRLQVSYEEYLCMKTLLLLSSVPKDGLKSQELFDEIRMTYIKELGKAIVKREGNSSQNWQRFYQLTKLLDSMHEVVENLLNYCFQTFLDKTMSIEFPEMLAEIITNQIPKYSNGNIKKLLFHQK
Test: Competitive binding affinity to glucocorticoid receptor (unknown origin) expressed in baculovirus-infected cell system after 1 hr by fluorescence polarization assay in presence of tetramethylrhodamine-labeled dexamethasone
Numbers only, as −log10 of the molar value.

Below are worked cases with known answers.
1) Cc1ccccc1C(C)(C)CC(O)(Cc1cc2ncncc2[nH]1)C(F)(F)F (racemic) ... 7.89
2) Cc1ccc(F)cc1C(C)(C)CC(O)(Cc1cc2nc(N3CCCC3)ncc2[nH]1)C(F)(F)F (racemic) ... 7.74
3) Cc1ccc(F)cc1C(C)(C)CC(O)(Cc1cc2cc(-c3ccccc3)nnc2[nH]1)C(F)(F)F (racemic) ... 7.89
4) CC(C)(CC(O)(Cc1cc2ncncc2[nH]1)C(F)(F)F)c1ccccc1S(C)(=O)=O (racemic) ... 7.62
5) COc1ccc(F)cc1C(C)(C)CC(O)(Cc1cc2ncncc2[nH]1)C(F)(F)F (racemic) ... 8.05
6) CC(C)(CC(O)(Cc1cc2ncncc2[nH]1)C(F)(F)F)c1cccc(S(C)(=O)=O)c1 (racemic) ... 6.08

// for each molecule in input: emit pIC50
1. Cc1ccc(F)cc1C(C)(C)C[C@@](O)(Cc1cc2ncncc2[nH]1)C(F)(F)F
2. Cc1ccc(F)cc1C(C)(C)CC(O)(Cc1cc2nc(-c3cccnc3)ncc2[nH]1)C(F)(F)F (racemic)
3. Cc1ccc(F)cc1C(C)(C)CC(O)(Cc1cc2cnncc2[nH]1)C(F)(F)F (racemic)

Found:
[8.40, 8.30, 8.52]

Give pIC50 for each listed item.
1. Cc1ccc(F)cc1C(C)(C)CC(O)(Cc1cc2nc(C(C)C)ncc2[nH]1)C(F)(F)F (racemic)
2. CC(C)(CC(O)(Cc1cc2ncncc2[nH]1)C(F)(F)F)c1cc(F)ccc1O (racemic)

Found:
1. 7.59
2. 8.15

* * *

Biological target: Progesterone receptor (Homo sapiens, UniProt P06401)
Sequence (P06401 whole entry): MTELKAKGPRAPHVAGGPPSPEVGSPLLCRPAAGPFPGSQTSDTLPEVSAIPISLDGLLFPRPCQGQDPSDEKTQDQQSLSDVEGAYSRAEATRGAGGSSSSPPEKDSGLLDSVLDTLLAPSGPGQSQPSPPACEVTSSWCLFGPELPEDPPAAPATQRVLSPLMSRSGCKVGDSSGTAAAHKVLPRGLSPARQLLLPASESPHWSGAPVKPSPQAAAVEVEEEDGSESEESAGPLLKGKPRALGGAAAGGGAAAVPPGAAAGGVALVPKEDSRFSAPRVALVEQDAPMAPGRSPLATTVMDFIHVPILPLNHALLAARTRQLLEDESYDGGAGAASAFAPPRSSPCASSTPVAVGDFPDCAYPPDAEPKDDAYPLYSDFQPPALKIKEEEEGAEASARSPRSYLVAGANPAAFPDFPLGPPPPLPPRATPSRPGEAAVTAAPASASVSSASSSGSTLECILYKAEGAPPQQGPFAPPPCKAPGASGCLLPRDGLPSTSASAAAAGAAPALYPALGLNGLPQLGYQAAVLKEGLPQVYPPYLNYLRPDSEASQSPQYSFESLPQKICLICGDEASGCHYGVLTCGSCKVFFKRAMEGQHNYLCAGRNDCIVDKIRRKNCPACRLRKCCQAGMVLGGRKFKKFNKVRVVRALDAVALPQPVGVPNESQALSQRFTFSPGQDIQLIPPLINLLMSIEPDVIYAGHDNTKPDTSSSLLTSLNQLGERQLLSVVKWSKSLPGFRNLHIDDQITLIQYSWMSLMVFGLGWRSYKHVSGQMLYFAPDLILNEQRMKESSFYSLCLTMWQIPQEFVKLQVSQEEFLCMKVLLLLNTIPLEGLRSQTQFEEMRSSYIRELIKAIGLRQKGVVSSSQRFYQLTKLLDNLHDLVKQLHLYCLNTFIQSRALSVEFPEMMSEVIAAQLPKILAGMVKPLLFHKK
Test: Competitive binding affinity to progesterone receptor (unknown origin) expressed in baculovirus-infected cell system after 1 hr by fluorescence polarization assay in presence of tetramethylrhodamine-labeled RU-486
pIC50: −log10 of the molar value.
MEASURED ENDPOINT: pIC50

1) Cc1ccc(F)cc1C(C)(C)CC(O)(Cc1cc2nc(N3CCOCC3)ncc2[nH]1)C(F)(F)F (racemic) ... 5.85
2) Cc1ccc(F)cc1C(C)(C)C[C@@](O)(Cc1cc2ncncc2[nH]1)C(F)(F)F ... < 5.70
3) Cc1ccc(F)cc1C(C)(C)CC(O)(Cc1cc2nc(N3CCS(=O)(=O)CC3)ncc2[nH]1)C(F)(F)F (racemic) ... < 5.70

Turning now to a further record.
Lookup: Query (compound): CC(C)(CC(O)(Cc1cc2ncncc2[nH]1)C(F)(F)F)c1ccccc1S(C)(=O)=O (racemic) ; field requested: pIC50
Found: < 5.70

* * *

Target: UniProtKB P04150
Sequence (P04150 whole entry): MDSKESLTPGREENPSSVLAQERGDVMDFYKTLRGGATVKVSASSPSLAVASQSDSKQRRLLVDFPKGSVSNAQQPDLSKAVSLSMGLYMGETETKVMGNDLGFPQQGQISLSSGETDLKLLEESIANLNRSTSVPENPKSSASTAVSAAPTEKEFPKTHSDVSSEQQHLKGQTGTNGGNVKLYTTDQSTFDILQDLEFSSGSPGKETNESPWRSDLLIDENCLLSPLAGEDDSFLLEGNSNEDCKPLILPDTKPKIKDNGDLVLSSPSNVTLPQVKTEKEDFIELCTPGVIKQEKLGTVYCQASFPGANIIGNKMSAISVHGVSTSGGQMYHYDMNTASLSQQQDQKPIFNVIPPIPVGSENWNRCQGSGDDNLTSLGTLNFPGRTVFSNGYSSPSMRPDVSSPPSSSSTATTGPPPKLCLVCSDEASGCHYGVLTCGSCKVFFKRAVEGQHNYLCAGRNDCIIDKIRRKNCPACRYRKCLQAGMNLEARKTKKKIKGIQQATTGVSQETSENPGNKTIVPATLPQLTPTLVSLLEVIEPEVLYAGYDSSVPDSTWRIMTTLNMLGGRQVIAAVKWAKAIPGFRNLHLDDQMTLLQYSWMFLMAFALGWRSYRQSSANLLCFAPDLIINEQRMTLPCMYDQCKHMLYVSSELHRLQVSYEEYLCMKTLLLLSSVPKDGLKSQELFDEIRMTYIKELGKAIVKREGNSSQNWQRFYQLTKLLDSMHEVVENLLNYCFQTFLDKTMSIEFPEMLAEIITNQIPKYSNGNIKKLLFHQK
Assay: Transrepression activity at glucocorticoid receptor in human fibroblasts assessed as inhibition of IL-1-induced IL-6 production after 18 to 24 hrs
MEASURED ENDPOINT: IC50 (µM)
Numbers only, in µM.

1. Cc1ccc(F)cc1C(C)(C)CC(O)(Cc1cc2nc(N3CCOCC3)ncc2[nH]1)C(F)(F)F (racemic) ... 0.015

Lookup: GET /values?readout=IC50&item= Cc1ccc(F)cc1C(C)(C)C[C@@](O)(Cc1cc2ncncc2[nH]1)C(F)(F)F
Found: 0.013

All figures here come from ChEMBL document CHEMBL3124926.
